# assay-target: T1, soluble form of the extracellular domain of human CD40 (Creative BioMart) (human, UniProt P25942 21-193)
# T1 construct: Bought
# T1 sequence (P25942 21-193 limits assumed): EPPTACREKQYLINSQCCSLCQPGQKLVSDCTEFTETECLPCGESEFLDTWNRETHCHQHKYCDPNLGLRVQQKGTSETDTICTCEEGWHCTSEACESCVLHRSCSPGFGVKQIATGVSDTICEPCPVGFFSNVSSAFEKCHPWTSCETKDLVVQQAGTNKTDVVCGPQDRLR
# assay-name: SPR, Ab captured
assay-endpoint: koff (s⁻¹)
Numbers only here, please. The scale is s⁻¹.

The examples below pair each entry with its known result.
binder	assay-endpoint	experimental-value
AD163.162.1 (antibody, V domains shown, mouse hybridoma antibody; also called muAb6) VH: QVQLQQPGAELVRPGSSVKLSCKASGYTFTSYWMHWVKQRPIQGLEWIGNIDPSNGETHYNQKFKDKATLTVDKSSSTAYMQLSSLTSEDSAVYYCARERIYYSGSTYDGYFDVWGTGTTVTVSS VL: QIVLTQSPAIMSASPGEKVTMTCSASSSLSYMHWYQQKSGTSPKRWIYDTSKLASGVPARFSGSGSGTSYSLTISSMEAEDAATYYCQQWSSNPWTFGGGTKLEIK	koff	0.0048
AD164.76.3 (antibody, V domains shown, mouse hybridoma antibody; also called muAb10; AD164.76.2) VH: DVQLQESGPGLVKPSQSLSLTCSVTGYSITSNYYWNWIRQFPGNKLEWMGYIRYDGSNNYNPSLKNRISITRDTSKNQFFLRLNSVTTEDTATYYCTRLDYWGQGTTLTVSS VL: DAVMTQTPLSLPVSLGDQASISCRSSQSLENSNGNTFLNWFLQKPGQSPQLLIYRISNRFSGVPDRFSGSGSGTDFTLKISRVEAEDLGVYFCLQVTHVPFTFGSGTKLEIK	koff	0.034

Which koff reading was recorded for the binder AD166.4.4 (antibody, V domains shown, mouse hybridoma antibody; also called muAb2) VH: QVQLQQSGAELMKPGASAKLSCKATGYTFTGYWIQWVKQRPGHGLEWIGEILPGGDHTKYNEKFRGKATFTSDTSSNTVYMQLSSLTTEDSAIYYCARVGGDYWGQGTTLTVSS VL: DVVMTQTPLSLPVSLGDQASISCRSSQSLVNSNENTYLHWYLQKPGQSPKLLIYKVFNRYSGVPDRFSGSGSGTDFTLKISRVEAEDLGVYFCFQSTHVPWTFGGGTKLEIK ?
0.0096
